B1: HDV Ribozyme (parent)
chain: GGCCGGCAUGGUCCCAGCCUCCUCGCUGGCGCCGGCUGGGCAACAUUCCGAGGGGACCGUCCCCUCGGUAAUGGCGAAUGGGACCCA

Variants of: B1
ASSAY_TEXT: self-cleavage, relative activity (ratio to wild type); higher = more cleavage; co-transcriptional
Would you mind sorting the entries by self-cleavage according to these classes? low group = under 0.2, middle group = from 0.2 up to 0.8, high group = 0.8 and over

Example entries and their recorded answers appear below.
INPUT: Please let me know in which category the item GGCCGGCAUGGUCCCAGCCUCCUCGCUGGCGCCGGCUGGGCAACAAUCCGAGGGGACCGUCCCCUCGGUAAUGGAGAAUGGGACCCA [U46A C75A] belongs.
OUTPUT: low group

INPUT: Please let me know in which category the item GGCCGGCAUGGUCCCAGCCUCCUCGCUGGCGCCGGCUGGGCAAGAUUCCGAGGGGACCGUCCCCUCGGUAAUGGCGAAUGCGACCCA [C44G G81C] belongs.
OUTPUT: middle group

INPUT: Please let me know in which category the item GGCCGGCAUGGUCCCAGCCUCCACGCUGGCGCCGGCUGGGCAACAUUCCGAGGGGACCGUCCCCUCGGUAAUGGCGAAUGGGACCCU [U23A A87U] belongs.
OUTPUT: high group

INPUT: Please let me know in which category the item GGCCUGCAUGGUCCCAGCCUCCCCGCUGGCGCCGGCUGGGCAACAUUCCGAGGGGACCGUCCCCUCGGUAAUGGCGAAUGGGACCCA [G5U U23C] belongs.
OUTPUT: middle group

INPUT: Please let me know in which category the item GGCCGGCAUAGUCCCAGCCUCCUCGCUGGCGCCGGCUGGACAACAUUCCGAGGGGACCGUCCCCUCGGUAAUGGCGAAUGGGACCCA [G10A G40A] belongs.
OUTPUT: high group

INPUT: Please let me know in which category the item GGCCGGCAUGGUCCCAGCCUCCUCGCUGGCGCCAGCUGGGCAACAUUCCGAGGGGACCGUCCCCUCGGUAAUGGCGAAUGGUACCCA [G34A G82U] belongs.
OUTPUT: low group

Further cases:
INPUT: Please let me know in which category the item GGCCGGCAUGGUCCCAGCCUCCUCGCUGGCGCCGGCUGGGCAACAAUCCGAGGGGACCGUCCCCUCGGUAAUGGCUAAUGGGACCCA [U46A G76U] belongs.
OUTPUT: high group

INPUT: Please let me know in which category the item GGCCGGCAUGGUCCCAGCCUCCUCGCUGGCGCCGGCUGGGCAAAAUUCCGACGGGACCGUCCCCUCGGUAAUGGCGAAUGGGACCCA [C44A G52C] belongs.
OUTPUT: high group

INPUT: Please let me know in which category the item GGCCGGCAUGGUCCCGGCCUCCUCGCUGGCGCCGGCUGGGCAACAUUCCGCGGGGACCGUCCCCUCGGUAAUGGCGAAUGGGACCCA [A16G A51C] belongs.
OUTPUT: high group

INPUT: Please let me know in which category the item GGCCGGAAUGGUCCCAGCCUCCUCGAUGGCGCCGGCUGGGCAACAUUCCGAGGGGACCGUCCCCUCGGUAAUGGCGAAUGGGACCCA [C7A C26A] belongs.
OUTPUT: middle group
